Target: complement protein C3 of cynomolgus monkey plasma
# ED50 80% cynomolgus plasma (nM), C3 cleavage, C3 ELISA per record follows
Respond numerically; units are nM and should not be typed.

q: Value lookup for ED50 80% cynomolgus plasma (nM), C3 cleavage, C3 ELISA; key = Q38H/I41S/D60bT/F60eS/Y60gW/D96L/F97D/ins97aG/T98N/F99L/C122S/G151H/Q175L/Q192E (protein) VVGGTDADEGEWPWQVSLHALGHGHSCGASLISPNWLVSAAHCYIDTRGSRWSDPTQWTAFLGLHDQSQRSAPGVQERRLKRIISHPFFNLDGNLDYDIALLELEKPAEYSSMVRPISLPDASHVFPAGKAIWVTGWGHTQYGGTHALILQKGEIRVINQTTCENLLPQLITPRMMCVGFLSGGVDSCEGDSGGPLSSVEADGRIFQAGVVSWGDGCAQRNKPGVYTRLPLFRDWIKENTGV
a: 70

q: I'd like to know its ED50 80% cynomolgus plasma (nM), C3 cleavage, C3 ELISA. The protein in question is Q38H/I41S/D60bT/F60eS/Y60gW/D96K/F97D/ins97aA/T98P/F99L/C122S/G151H/Q175L/Q192D (protein) VVGGTDADEGEWPWQVSLHALGHGHSCGASLISPNWLVSAAHCYIDTRGSRWSDPTQWTAFLGLHDQSQRSAPGVQERRLKRIISHPFFNKDAPLDYDIALLELEKPAEYSSMVRPISLPDASHVFPAGKAIWVTGWGHTQYGGTHALILQKGEIRVINQTTCENLLPQLITPRMMCVGFLSGGVDSCDGDSGGPLSSVEADGRIFQAGVVSWGDGCAQRNKPGVYTRLPLFRDWIKENTGV
a: 85

q: Fill blank: measured ED50 80% cynomolgus plasma (nM), C3 cleavage, C3 ELISA of the protein I41R/F97T/Ins97aE/T98G/F99L/C122S/G151N/Q175L/Q192E (protein) VVGGTDADEGEWPWQVSLHALGQGHRCGASLISPNWLVSAAHCYIDDRGFRYSDPTQWTAFLGLHDQSQRSAPGVQERRLKRIISHPFFNDTEGLDYDIALLELEKPAEYSSMVRPISLPDASHVFPAGKAIWVTGWGHTQYGGTNALILQKGEIRVINQTTCENLLPQLITPRMMCVGFLSGGVDSCEGDSGGPLSSVEADGRIFQAGVVSWGDGCAQRNKPGVYTRLPLFRDWIKENTGV is ____.
a: 2200

q: // lookup ED50 80% cynomolgus plasma (nM), C3 cleavage, C3 ELISA for Q38H/I41S/D60bT/F60eS/Y60gW/D96Y/F97E/ins97aV/T98G/F99L/C122S/G151H/Q175L/Q192D (protein) VVGGTDADEGEWPWQVSLHALGHGHSCGASLISPNWLVSAAHCYIDTRGSRWSDPTQWTAFLGLHDQSQRSAPGVQERRLKRIISHPFFNYEVGLDYDIALLELEKPAEYSSMVRPISLPDASHVFPAGKAIWVTGWGHTQYGGTHALILQKGEIRVINQTTCENLLPQLITPRMMCVGFLSGGVDSCDGDSGGPLSSVEADGRIFQAGVVSWGDGCAQRNKPGVYTRLPLFRDWIKENTGV
a: 133

q: What measured ED50 80% cynomolgus plasma (nM), C3 cleavage, C3 ELISA goes with Wild-type MTSP-1 protease domain with C122S (protein) VVGGTDADEGEWPWQVSLHALGQGHICGASLISPNWLVSAAHCYIDDRGFRYSDPTQWTAFLGLHDQSQRSAPGVQERRLKRIISHPFFNDFTFDYDIALLELEKPAEYSSMVRPISLPDASHVFPAGKAIWVTGWGHTQYGGTGALILQKGEIRVINQTTCENLLPQQITPRMMCVGFLSGGVDSCQGDSGGPLSSVEADGRIFQAGVVSWGDGCAQRNKPGVYTRLPLFRDWIKENTGV ?
a: 2800
